Test system: 435261-313-R-J1-PDC complex spheroid viability;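 also: spheroids exposed to the agents for seven days before readout; percent of vehicle control viability with DMSO wells as 100%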
ASSAY_DETAILS: Anticancer human tumor 435261-313-R-J1-PDC patient-derived colon adenocarcinoma cell line growth inhibition [GQUAD]
TEST_CONTEXT: second compound 0.316 µM; first compound 0.00999 µM; hits give low values
Measured viability, T/C accompanies every entry in the list below.

{"columns": ["COMPOUND", "viability, T/C, %"],
 "data": [
  ["Cn1ncnc1[C@H]1c2n[nH]c(=O)c3cc(F)cc(c23)N[C@@H]1c1ccc(F)cc1 + CN(C)c1ccc(Nc2c3ccc(NC(=O)CCN4CCCC4)cc3nc3cc(NC(=O)CCN4CCCC4)ccc23)cc1", 84.1],
  ["CC[C@@]1(O)C(=O)OCc2c1cc1n(c2=O)Cc2cc3c(CN(C)C)c(O)ccc3nc2-1 + Cc1cnc(CNC(=O)c2c(=O)c3ccc(N4CCCN(C)CC4)nc3n3c2sc2ccccc23)cn1", 50.5],
  ["Cc1[nH]c2ccccc2c1CCNCc1ccc(/C=C/C(=O)NO)cc1 + Cc1[nH]c2ccc(F)cc2c1-c1nc2c3cccnc3c3ncccc3c2[nH]1", 61.8]
]}
